Taken from patent US20230340530A1.

- Measured On: RNA samples (Chi18 or HCV IRES)
- Assay Remarks: Droplet Digital Polymerase Chain Reaction (ddPCR) assay of RNA protection
- Test Settings: 50 mM Tris buffer pH 11.4, 16 hrs at 30° C. for Chi18 or 42° C. for HCV; table does not say which RNA; 600 µM to 0.018 µM compound, 2% DMSO; read-out: EC50 Values Obtained from the ddPCR Assay
Measure: EC50
# answer = value followed by unit

Guide cases for EC50, answers given:
INSERT INTO assay_data (compound, measure, reported) VALUES
  ('C[C@H]1c2ccc(NCC(=O)Nc3ccc4c(c3)B(O)OC4)c(O)c2C(=O)C2=C(O)[C@]3(O)C(=O)C(C(N)=O)=C(O)[C@@H](N(C)C)[C@@H]3[C@@H](O)[C@@H]21 [PF-06968419]', 'EC50', '75.1 µM'),
  ('C[C@H]1c2ccc(NCCC(=O)Nc3cc4c5c(c3)OCCOB5OC4)c(O)c2C(=O)C2=C(O)[C@]3(O)C(=O)C(C(N)=O)=C(O)[C@@H](N(C)C)[C@@H]3[C@@H](O)[C@@H]21 [PF-06968542]', 'EC50', '126 µM'),
  ('CN(C)c1cc(NC(=O)c2ccc3c(c2)B(O)OC3(C)C)c(O)c2c1C[C@H]1C[C@H]3[C@H](N(C)C)C(O)=C(C(N)=O)C(=O)[C@@]3(O)C(O)=C1C2=O [PF-06967791]', 'EC50', '55.6 µM'),
  ('C[C@H]1c2ccc(NC(=O)CCC(=O)Nc3ccc4c(c3)B(O)OC4)c(O)c2C(=O)C2=C(O)[C@]3(O)C(=O)C(C(N)=O)=C(O)[C@@H](N(C)C)[C@@H]3[C@@H](O)[C@@H]21 [PF-06968256]', 'EC50', '75.7 µM'),
  ('O=C(OCc1cccc(B2OCc3cc(F)ccc32)c1)c1ccc2cccc(O)c2n1 [PF-06957137]', 'EC50', '429 µM'),
  ('CN1CCN(Cc2cccc(B(Oc3cccc4cccnc34)c3ccc(C#N)cc3)c2)CC1 [PF-06957315]', 'EC50', '253 µM');

Here are 3 compounds. What values of EC50 were reported for them?
1. C[C@H]1c2ccc(NC(=O)CNc3ccc4c(c3)B(O)OC4(C)C)c(O)c2C(=O)C2=C(O)[C@]3(O)C(=O)C(C(N)=O)=C(O)[C@@H](N(C)C)[C@@H]3[C@@H](O)[C@@H]21 [PF-06968306]
2. Cc1cccnc1N(C(=O)c1ccc([B-](F)(F)F)cc1)[C@@H]1CCCN(C(=O)OC(C)(C)C)C1 [PF-06875313]
3. COC(=O)c1cc(B2OC(C)(C)C(C)(C)O2)cc(C(=O)OC)n1 [PHA-00804319]

1: 234 µM; 2: 360 µM; 3: 214 µM
